- System: biotinyl-Ile-oxazolone
- test: self-aminoacylation, catalytic enhancement (BIO) (fold over background); higher = more active; k-Seq, kA / k0A0; sequences stand for … in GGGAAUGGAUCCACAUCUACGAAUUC…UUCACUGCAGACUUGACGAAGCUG
Variants at the floor of the assay were thinned out.
valueKind: self-aminoacylation

chain: AAGUUAGCUAAUAGUCGCAGG [Fam3.1 aminoacylation ribozyme variant]
self-aminoacylation: 1.76

chain: CUUCUUCAAACAGUCGGUCUG [Fam1A.1 aminoacylation ribozyme variant]
self-aminoacylation: 0.697

chain: CUACUUCAAACAAUAGGUCUG [Fam1A.1 aminoacylation ribozyme variant]
self-aminoacylation: 0.813

Could you now look at the following sequence, please?
// query I'd like to know its self-aminoacylation. The sequence in question is AUUACGCUGGUGAUCGAGUGA [Fam2.1 aminoacylation ribozyme variant]
// result 2.89

These measurements were taken from the supplement of paper PMC9233669.
